From: paper PMC4823997

study-system: CCR4 (Homo sapiens)
Sequence (P51679 whole entry): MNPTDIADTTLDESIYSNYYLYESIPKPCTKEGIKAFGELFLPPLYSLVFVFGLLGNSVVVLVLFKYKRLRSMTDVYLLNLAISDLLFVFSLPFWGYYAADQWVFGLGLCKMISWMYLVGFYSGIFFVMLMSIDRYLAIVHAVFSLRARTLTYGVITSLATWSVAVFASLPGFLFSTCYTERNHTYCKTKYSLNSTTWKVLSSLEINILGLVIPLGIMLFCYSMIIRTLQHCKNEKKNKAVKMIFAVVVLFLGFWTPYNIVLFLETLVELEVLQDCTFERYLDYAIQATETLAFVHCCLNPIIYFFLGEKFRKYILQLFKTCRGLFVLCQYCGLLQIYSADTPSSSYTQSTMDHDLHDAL
run-description: CCR4 radioligand binding assay
assay-context: read-out: IC50 CCR4
measured-attribute: IC50

CCR4 (Homo sapiens) / IC50 / c1nc2c(NCc3ccc(CCNCCCNC4CCCCC4)cc3)nc(N3CCNCC3)nc2[nH]1 [Compound 24] : value? > 10 µM

###

run-description: Cytotoxicity assay
Assay type: cell-based
assay-context: human, TZM-bl cells
measured-attribute: CC50 at 72 h

> print(dat)
                                   molecule  data.value
1  CN1CCN(c2nc(NCc3ccc(CNCCCNC4CCCCC4)cc3)c3ncn(C)c3n2)CC1 [Compound 20]     11.2 µM
2  c1cc(CNCCCNC2CCCCC2)cc(CNc2nc(N3CCNCC3)nc3[nH]cnc23)c1 [Compound 25]     > 50 µM
3  Cn1cnc2c(NCc3ccc(CNCCCNC4CCCCC4)cc3)nc(N3CCNCC3)nc21 [Compound 19]     18.6 µM
4  c1nc2c(NCc3ccc(CNCCCNC4CCCCC4)cn3)nc(N3CCNCC3)nc2[nH]1 [Compound 22]     > 50 µM
5  COc1ccc2nc(NCc3ccc(CNCCCNC4CCCCC4)cc3)nc(NC3CCNCC3)c2c1 [Compound 9]      8.4 µM

Required: CC50 at 72 h, one value per molecule below.
1. c1cc(CNCCCNC2CCCCC2)nc(CNc2nc(N3CCNCC3)nc3[nH]cnc23)c1 [Compound 26]
2. COc1cc2nc(NCc3ccc(CNCCCN4CCCCC4)cc3)nc(NC3CCNCC3)c2cc1OC [Compound 17]

1: > 50 µM; 2: 28.1 µM

Record CC50 at 72 h for all entries; do not skip any.
1. c1nc2c(NCc3ccc(CNCCCNC4CCCCC4)cc3)nc(N3CCNCC3)nc2[nH]1 [Compound 18]
2. c1nc2c(NCc3ccc(CNCCCNC4CCCCC4)cc3)nc(N3CCC(C4CCNCC4)CC3)nc2[nH]1 [Compound 21]
3. COc1ccc2c(NC3CCNCC3)nc(NCc3ccc(CNCCCNC4CCCCC4)cc3)nc2c1 [Compound 10]
4. COc1cc2nc(NCc3ccc(CNCCCNC4CCCCC4)cc3)nc(NC3CCNCC3)c2cc1OC [Compound 11]
5. COc1ccc2nc(NCc3ccc(CNCCCNC4CCCCCC4)cc3)nc(NC3CCNCC3)c2c1 [Compound 12]

1. > 50 µM
2. > 50 µM
3. 10.8 µM
4. 23.1 µM
5. 21.7 µM

Batch request: CC50 at 72 h per item, same order as input.
1. c1nc2c(NCc3cncc(CNCCCNC4CCCCC4)c3)nc(N3CCNCC3)nc2[nH]1 [Compound 27]
2. COc1ccc2c(NC3CCNCC3)nc(NCc3ccc(CNCCCNC4CCCCCC4)cc3)nc2c1 [Compound 13]

> 50 µM
10.8 µM

###

run-description: Cytotoxicity assay
Assay type: cell-based, human
assay-context: human, CEM cells (T-lymphoblast leukemia)
measured-attribute: selectivity ratio at 72 h
One number for each entry.

Solved entries:
> print(dat)
                                   compound         measured.attribute  data.value
1  CN1CCN(c2nc(NCc3ccc(CNCCCNC4CCCCC4)cc3)c3ncn(C)c3n2)CC1 [Compound 20]  selectivity ratio at 72 h        2120
2  COc1ccc2nc(NCc3ccc(CNCCCNC4CCCCC4)cc3)nc(NC3CCNCC3)c2c1 [Compound 9]  selectivity ratio at 72 h         169
3  Cn1cnc2c(NCc3ccc(CNCCCNC4CCCCC4)cc3)nc(N3CCNCC3)nc21 [Compound 19]  selectivity ratio at 72 h        5940
4  COc1ccc2c(NC3CCNCC3)nc(NCc3ccc(CNCCCNC4CCCCCC4)cc3)nc2c1 [Compound 13]  selectivity ratio at 72 h         134

Turning now to a further record.
Please report the recorded selectivity ratio at 72 h for COc1ccc2c(NC3CCNCC3)nc(NCc3ccc(CNCCCNC4CCCCC4)cc3)nc2c1 [Compound 10] . 186

###

study-system: hCXCR4 (Homo sapiens)
Sequence (P61073 whole entry): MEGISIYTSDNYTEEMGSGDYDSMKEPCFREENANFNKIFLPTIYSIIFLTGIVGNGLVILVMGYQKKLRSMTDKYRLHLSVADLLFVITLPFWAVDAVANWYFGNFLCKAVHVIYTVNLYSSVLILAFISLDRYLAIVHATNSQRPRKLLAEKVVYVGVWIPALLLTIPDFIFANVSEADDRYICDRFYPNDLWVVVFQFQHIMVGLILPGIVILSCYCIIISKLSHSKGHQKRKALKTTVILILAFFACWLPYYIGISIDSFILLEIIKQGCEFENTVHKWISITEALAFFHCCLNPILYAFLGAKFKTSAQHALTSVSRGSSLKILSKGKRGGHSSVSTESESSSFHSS
run-description: Radioligand [125I]SDF-1α binding to hCXCR4-transfected HEK293 membrane
assay-context: relative to compound 4
Would you mind telling me the reported fold increase in CXCR4 binding affinity compared to compound 4 of each entry?

Consider the following illustrative entries.
> print(dat)
                               input.smiles           study.system  data.value
1  COc1ccc2nc(NCc3ccc(CNCCCNC4CCCCC4)cc3)nc(NC3CCNCC3)c2c1  hCXCR4 (Homo sapiens)    4−5 fold
2  c1nc2c(NCc3ccc(CCNCCCNC4CCCCC4)cc3)nc(N3CCNCC3)nc2[nH]1  hCXCR4 (Homo sapiens)    2.2 fold
3  COc1ccc2c(NC3CCNCC3)nc(NCc3ccc(CNCCCNC4CCCCCC4)cc3)nc2c1  hCXCR4 (Homo sapiens)    4−5 fold

Please look at the items below and tell me fold increase in CXCR4 binding affinity compared to compound 4 for each one, in order.
1. COc1ccc2c(NC3CCNCC3)nc(NCc3ccc(CNCCCNC4CCCCC4)cc3)nc2c1
2. COc1ccc2nc(NCc3ccc(CNCCCNC4CCCCCC4)cc3)nc(NC3CCNCC3)c2c1

1: 4−5 fold; 2: 4−5 fold

###

study-system: CCR2 (Homo sapiens, UniProt P41597)
Sequence (P41597 whole entry, species assumed): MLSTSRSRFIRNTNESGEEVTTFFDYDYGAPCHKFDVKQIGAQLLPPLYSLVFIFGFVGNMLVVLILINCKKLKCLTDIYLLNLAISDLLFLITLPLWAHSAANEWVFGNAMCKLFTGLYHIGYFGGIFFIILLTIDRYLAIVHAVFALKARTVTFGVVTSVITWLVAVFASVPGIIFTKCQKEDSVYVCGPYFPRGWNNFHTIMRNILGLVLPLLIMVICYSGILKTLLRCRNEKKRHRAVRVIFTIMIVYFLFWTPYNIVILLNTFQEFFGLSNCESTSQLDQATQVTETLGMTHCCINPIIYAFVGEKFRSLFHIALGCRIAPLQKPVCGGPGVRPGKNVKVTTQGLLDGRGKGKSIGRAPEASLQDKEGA
run-description: CCR2 radioligand binding assay
measured-attribute: IC50

I'd like to know its IC50. The compound in question is c1cc(CNCCCNC2CCCCC2)cc(CNc2nc(N3CCNCC3)nc3[nH]cnc23)c1 > 10 µM

###

Answer each item with its documented CC50 at 72 h.
run-description: Cytotoxicity assay
Format: cell-based, human
assay-context: human, CEM cells (T-lymphoblast leukemia)

Look over these answered cases.
> print(dat)
                               input.smiles  data.value
1  COc1ccc2c(NC3CCNCC3)nc(NCc3ccc(CNCCCNC4CCCCCC4)cc3)nc2c1      6.1 µM
2  c1nc2c(NCc3ccc(CNCCCNC4CCCCC4)cc3)nc(N3CCC(C4CCNCC4)CC3)nc2[nH]1     > 50 µM
3  Cn1cnc2c(NCc3ccc(CNCCCNC4CCCCC4)cc3)nc(N3CCNCC3)nc21     20.2 µM
4  c1cc(CNCCCNC2CCCCC2)nc(CNc2nc(N3CCNCC3)nc3[nH]cnc23)c1     > 50 µM
5  c1nc2c(NCc3ccc(CNCCCNC4CCCCC4)cc3)nc(N3CCNCC3)nc2[nH]1     > 50 µM

// each compound listed below needs its CC50 at 72 h
1. c1cc(CNCCCNC2CCCCC2)cc(CNc2nc(N3CCNCC3)nc3[nH]cnc23)c1
2. COc1ccc2c(NC3CCNCC3)nc(NCc3ccc(CNCCCNC4CCCCC4)cc3)nc2c1

1. > 50 µM
2. 1.6 µM

Given COc1cc2nc(NCc3ccc(CNCCCN4CCCCC4)cc3)nc(NC3CCNCC3)c2cc1OC , state its recorded CC50 at 72 h. 17.6 µM

###

run-description: Cytotoxicity assay
Format: cell-based, human
assay-context: human, CEM cells (T-lymphoblast leukemia)
Give selectivity ratio at 72 h for every item shown.
Give bare numbers.

Here is how some compounds turned out for selectivity ratio at 72 h.
> print(dat)
                                   compound         measured.attribute  data.value
1  COc1ccc2nc(NCc3ccc(CNCCCNC4CCCCCC4)cc3)nc(NC3CCNCC3)c2c1 [Compound 12]  selectivity ratio at 72 h         153
2  COc1cc2nc(NCc3ccc(CNCCCN4CCCCC4)cc3)nc(NC3CCNCC3)c2cc1OC [Compound 17]  selectivity ratio at 72 h         672

Need selectivity ratio at 72 h of COc1cc2nc(NCc3ccc(CNCCCNC4CCCCC4)cc3)nc(NC3CCNCC3)c2cc1OC [Compound 11] , thanks. 806

###

System: CEM cells
run-description: Cytotoxicity assay
Type: cell-based, human
assay-context: read-out: Cytotoxicity CC50 CEM; CEM cells, 72 h
measured-attribute: CC50 (µM)
Give bare numbers, in µM.

Record CC50 per entry; entries follow.
1. COc1ccc2nc(NCc3ccc(CNCCCN4CCCCC4)cc3)nc(NC3CCNCC3)c2c1
2. c1nc2c(NCCc3ccc(CNCCCNC4CCCCC4)cc3)nc(N3CCNCC3)nc2[nH]1
3. COc1ccc2c(NC3CCNCC3)nc(NCc3ccc(CNCCCN4CCCCC4)cc3)nc2c1
4. COc1cc2nc(NCc3ccc(CNCCCNC4CCCCCC4)cc3)nc(NC3CCNCC3)c2cc1OC

1. 18.4
2. 46.7
3. 13.8
4. 18.2
